- System: ncRNAs (SEQ ID NO 28-89)
- measurement.description: ncRNA arrays of melanocytes, keratinocytes, normal skin, melanoma cell lines and patient samples
- Set-up: species or system human
- condition.info: melanoma patient 5 sample compared to normal skin
property.label: ncRNA array expression, patient 5
Lab note: jot the number down without any unit.

Sure, the documented ncRNA array expression, patient 5 for SEQ ID NO 70 (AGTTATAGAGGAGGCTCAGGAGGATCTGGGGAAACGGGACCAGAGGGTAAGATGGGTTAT; listed as DNA, chemistry not given here; listed as Homo sapiens) is −1.521

Sure, the documented ncRNA array expression, patient 5 for SEQ ID NO 52 (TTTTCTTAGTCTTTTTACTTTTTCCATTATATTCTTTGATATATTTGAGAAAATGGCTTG; listed as DNA, chemistry not given here; listed as Homo sapiens) is 1.552

Sure, the documented ncRNA array expression, patient 5 for SEQ ID NO 33 (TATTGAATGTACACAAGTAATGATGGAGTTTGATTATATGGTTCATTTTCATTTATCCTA; DNA, backbone and methylation of C not given here; listed as Homo sapiens) is 0.6998
